Item-by-item account of % Blocking
# target-system: T1, human chemokine (C-C motif) receptor 8 (CCR8) (human, UniProt P51685 1-355)
# T1 construct: also called hCCR8
# T1 sequence (P51685 whole entry): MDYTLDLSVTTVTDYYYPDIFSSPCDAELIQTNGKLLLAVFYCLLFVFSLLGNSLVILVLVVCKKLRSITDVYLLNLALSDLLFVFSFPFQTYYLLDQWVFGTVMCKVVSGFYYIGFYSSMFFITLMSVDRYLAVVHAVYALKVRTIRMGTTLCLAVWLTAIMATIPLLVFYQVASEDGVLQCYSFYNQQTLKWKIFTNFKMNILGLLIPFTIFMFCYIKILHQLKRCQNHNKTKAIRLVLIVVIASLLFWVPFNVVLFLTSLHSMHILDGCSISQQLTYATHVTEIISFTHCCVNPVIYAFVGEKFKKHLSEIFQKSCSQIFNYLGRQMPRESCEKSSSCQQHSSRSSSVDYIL
# test-name: flow cytometry blocking, human PBMC, CD3+ gate; competitor PE-AB11
Report the value in % with no unit label.

Use the examples below as a reference point.
{"binder": "anti-CCR8 monoclonal antibody AB11 (antibody, V domains shown, Hybridoma monoclonal; also called antibody 11; clone 11) VH: EVQLVESGGGLVQPKGSLKLSCAASGFAFNTYAMNWVRQAPGKGLEWIARLRSKSNFYATYYADSVKDRFTISRDDSQSMLYLQMNNLKTEDTAVYYCVRGRELGPSYAMDYWGQGTSVTVSS VL: DIVMTQAAPSVPVTPGESVSISCRSSKSLLHSNGNTYLYWFLQRPGQSPQLLIYRMSNLASGVPDRFSGSGSGTAFTLRISRVEAEDVGVYYCMQHLEYPYTFGGGTKLEIK", "result": 98.7}
{"binder": "anti-CCR8 monoclonal antibody AB6 (antibody, V domains shown, also called antibody 6; clone 6) VH: QVQLKESGPGLVQPSQTLSLTCTVSGFSLTSYHVSWVRQPPGKGLEWMGVIWTGGSTTYNSLLKSRLSISRDISKSQVFLKMNSLQTEDTATYYCARGGTVVKGGFAYWGQGTLVTVSS VL: DIQMTQSPASLSASLEEIVTITCQASQDIGNRLSWYQQKPGKSPQLLIYGATSLADGVPSRFSGSRSGTQYSLKISRLQVEDIGIYYCLQAYSTPLTFGSGTKLEIK", "result": -9.26}

Would you kindly look at the next entry?
Entry anti-CCR8 monoclonal antibody AB10 (antibody, V domains shown, Hybridoma monoclonal; also called antibody 10; clone 10) VH: EVQLVETGGGLVQPKGSLKLSCAVSGFTFKTNAMNWVRQAPGKGLEWVARIRSKSNKYATYYADSVKDRFTISRDDSQSMLYLQMNNLKTEDTAMYYCVRGSEMGYYYAMDYWGQGTSVTVSS VL: DIVMTQAAPSVPVTPGESVSISCRSSKSLLHSNGNTYLYWFLQRPGQSPQLLIYRMSNLASGVPDRFSGSGSGTAFTLRISRVEAEDVGVYYCMQHLEYPFTFGGGTKLEIK ; % Blocking = 96
